- measured.on: HDAC6 human recombinant (Homo sapiens, UniProt Q9UBN7)
- Construct: purchased Calbiochem 382180
- Sequence (Q9UBN7 1-1215): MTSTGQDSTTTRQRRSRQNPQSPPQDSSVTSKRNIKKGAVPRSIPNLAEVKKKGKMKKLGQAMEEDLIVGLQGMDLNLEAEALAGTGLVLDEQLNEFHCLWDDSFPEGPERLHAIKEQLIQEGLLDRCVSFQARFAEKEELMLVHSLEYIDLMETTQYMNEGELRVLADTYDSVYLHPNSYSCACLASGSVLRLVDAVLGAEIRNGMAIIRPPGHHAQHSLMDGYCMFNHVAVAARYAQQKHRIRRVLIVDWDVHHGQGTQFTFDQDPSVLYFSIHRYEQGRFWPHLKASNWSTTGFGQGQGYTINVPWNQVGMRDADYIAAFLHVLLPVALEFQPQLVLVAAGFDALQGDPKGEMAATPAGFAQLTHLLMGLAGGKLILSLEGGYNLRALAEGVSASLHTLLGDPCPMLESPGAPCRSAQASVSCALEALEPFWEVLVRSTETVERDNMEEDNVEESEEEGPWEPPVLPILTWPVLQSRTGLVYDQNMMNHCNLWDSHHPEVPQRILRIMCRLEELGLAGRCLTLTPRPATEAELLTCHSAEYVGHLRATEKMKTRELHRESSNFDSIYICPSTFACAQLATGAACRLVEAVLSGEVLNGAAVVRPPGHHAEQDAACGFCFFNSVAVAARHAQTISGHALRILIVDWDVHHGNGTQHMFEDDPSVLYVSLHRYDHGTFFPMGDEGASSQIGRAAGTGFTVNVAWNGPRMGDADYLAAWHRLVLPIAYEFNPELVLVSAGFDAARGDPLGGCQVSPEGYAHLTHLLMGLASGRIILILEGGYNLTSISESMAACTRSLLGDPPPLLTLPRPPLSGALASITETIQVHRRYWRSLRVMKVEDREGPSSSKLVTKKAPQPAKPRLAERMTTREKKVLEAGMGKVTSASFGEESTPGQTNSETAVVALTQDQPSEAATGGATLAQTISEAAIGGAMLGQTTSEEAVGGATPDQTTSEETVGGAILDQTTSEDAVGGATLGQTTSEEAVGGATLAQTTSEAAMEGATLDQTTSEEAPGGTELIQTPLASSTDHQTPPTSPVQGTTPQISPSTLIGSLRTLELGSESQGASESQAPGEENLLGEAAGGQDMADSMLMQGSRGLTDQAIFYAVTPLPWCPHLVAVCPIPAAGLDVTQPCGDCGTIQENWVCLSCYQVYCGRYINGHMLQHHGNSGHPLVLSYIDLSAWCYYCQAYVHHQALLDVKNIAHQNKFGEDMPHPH
- method: HDAC enzyme activity inhibition (in vitro), HDAC6 assay
- Type: biochemical
- condition.notes: samples at 0.1, 1, 10, 100 and 1000 nM; 37° C. 60 minutes; fluorescence Ex 390, Em 460; read-out: HDAC6 IC50
Quick list: IC50 per entry.
reported.property: IC50 (nM)

- smiles.record: "O=c1n(Cc2ccc(-c3nnc(C(F)F)o3)cn2)c2cc(F)c(-c3cn[nH]c3)cc2n1C1CN(C2COC2)C1"
  endpoint.result: 6
- smiles.record: "CC(C)(C)OC(=O)n1ccc2cc(-c3ccc4c(c3)sc(=O)n4Cc3ccc(-c4nnc(C(F)F)o4)cn3)ccc21"
  endpoint.result: 1140
- smiles.record: "CN1CCC(n2c(=O)n(Cc3ccc(-c4nnc(C(F)F)o4)cc3F)c3cc(F)c(F)cc32)CC1"
  endpoint.result: 40
- smiles.record: "Cc1ccc(-c2cc3c(cc2F)n(Cc2ccc(-c4nnc(C(F)F)o4)cc2F)c(=O)n3C)o1"
  endpoint.result: 211
